# Tested on: WPMY1-ACTB-RAB5A
# Test Method Notes: phenotypically active (imaging signature differs from DMSO and reproducible) at any of 0.3-9 uM (binary (1 = active, 0 = inactive)); higher = active
# Test Conditions: treatment time: 24 h
Answer with one of the outcomes true (active), false (inactive)

See these solved cases before continuing.
Cc1ccc(C(=O)Oc2ccc(C(O)CNC(C)(C)C)cc2OC(=O)c2ccc(C)cc2)cc1 (centres undefined) [bitolterol]: false
Nc1ncnc2c1c(COc1cccc(Cl)c1)nn2C1CCOCC1: false
Oc1cc(O)c2c(c1)O[C@H](c1ccc(O)c(O)c1)[C@@H](O)C2 [Epicatechin-(-)]: false

Problem: Recorded call for CC(=O)Nc1nnc(S(N)(=O)=O)s1 [acetazolamide] ?
Result: false

Problem: Here is the next compound: O=C1NCCN1CCN1CCC(c2cn(-c3ccc(F)cc3)c3ccc(Cl)cc23)CC1 [sertindole]
Result: true

Problem: Param item: CC1=CC(=O)C2=C(C)CC[C@@H]3[C@H](OC(=O)[C@H]3C)[C@@H]12 [Leucomisine]
Result: false

Problem: What would you report for CCOP(=O)(OCC)C(=Cc1cc(C(C)(C)C)c(O)c(C(C)(C)C)c1)P(=O)(OCC)OCC ?
Result: false

Problem: Next: C[C@@H](c1ncncc1F)[C@](O)(Cn1cncn1)c1ccc(F)cc1F [voriconazole]
Result: false

Problem: Also, CN1c2ccc([N+](=O)[O-])cc2N=C(c2ccc(C(=O)O)cc2)c2cc3c(cc21)C(C)(C)CCC3(C)C please.
Result: false
